TARGET_DESC: rabbit reticulocyte 15-LO (Oryctolagus cuniculus, UniProt P12530)
Construct: Fifteen-lipoxygenase was obtained from phenylhydrazine-treated rabbits and purified per the method of Rapoport; from tissue; host or cells: reticulocytes of phenylhydrazine-treated rabbits
Sequence (P12530 whole entry): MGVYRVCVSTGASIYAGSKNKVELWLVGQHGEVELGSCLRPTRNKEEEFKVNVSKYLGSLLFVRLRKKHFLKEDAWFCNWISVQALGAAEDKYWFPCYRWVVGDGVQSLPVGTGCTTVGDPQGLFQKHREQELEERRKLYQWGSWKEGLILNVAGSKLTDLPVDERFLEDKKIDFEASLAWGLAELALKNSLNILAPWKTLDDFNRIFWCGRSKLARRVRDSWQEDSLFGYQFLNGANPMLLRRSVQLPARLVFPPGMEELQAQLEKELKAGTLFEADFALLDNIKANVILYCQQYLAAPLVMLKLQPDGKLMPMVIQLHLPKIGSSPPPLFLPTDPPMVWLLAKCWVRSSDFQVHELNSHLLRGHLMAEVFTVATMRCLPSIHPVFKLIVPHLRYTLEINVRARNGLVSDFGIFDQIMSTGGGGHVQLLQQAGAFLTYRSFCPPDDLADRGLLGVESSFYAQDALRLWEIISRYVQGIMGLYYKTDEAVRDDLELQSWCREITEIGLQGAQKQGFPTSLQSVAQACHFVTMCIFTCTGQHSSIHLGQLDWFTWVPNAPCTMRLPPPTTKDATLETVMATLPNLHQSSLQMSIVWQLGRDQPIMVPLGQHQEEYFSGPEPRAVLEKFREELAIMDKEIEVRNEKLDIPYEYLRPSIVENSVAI
ASSAY_NOTES: Rabbit Reticulocyte 15-LO Assay (h15LO)
Assay type: biochemical
CONDITIONS: Table 2; 2U rabbit reticulocyte 15-LO, 174 μM linoleic acid, 15 minutes at 4° C.
OBSERVED_PROPERTY: IC50 (nM)

Here is how some compounds turned out for IC50.
COc1ccc(C(=O)Nc2ccccc2)cc1NS(=O)(=O)c1cccc(C)c1 28
COc1ccc(C(=O)Nc2ccccc2)cc1Nc1ccc(C)cc1 29

I. COc1ccc(C(=O)Nc2ccccc2)cc1NS(=O)(=O)c1cccc2c(N(C)C)cccc12
II. COc1ccc(C(=O)Nc2ccccc2)cc1NC(=S)Nc1cccc(C#N)c1
III. O=C(Nc1ccccc1)c1ccc(F)c(Nc2ccccc2)c1
[Q] Put the compounds in ascending order of IC50. Order the labels as requested and give them as your answer.
[A] II, I, III

* * *

TARGET_DESC: rabbit reticulocyte 15-LO (Oryctolagus cuniculus)
Construct: Fifteen-lipoxygenase was obtained from phenylhydrazine-treated rabbits and purified per the method of Rapoport; from tissue; host or cells: reticulocytes of phenylhydrazine-treated rabbits
ASSAY_NOTES: Rabbit Reticulocyte 15-LO Assay (h15LO)
Assay type: biochemical
CONDITIONS: Table 2; concentration not given
OBSERVED_PROPERTY: h15LO, value given as bare % (%)

MOLECULE	READING_UNIT	h15LO, value given as bare %
COc1ccc(C(=O)Nc2ccccc2)cc1NS(=O)(=O)c1ccc([N+](=O)[O-])cc1	%	97.24
COc1ccc(C(=O)Nc2ccccc2)cc1NCCc1cccc(C(F)(F)F)c1	%	60.56
COc1ccc(C(=O)Nc2ccccc2)cc1NCc1ccc(C)c(C)c1	%	50
COc1ccc(C(=O)Nc2ccc(Cl)c(Cl)c2)cc1NCc1cccc(F)c1	%	58.09

1. COc1ccc(C(=O)Nc2ccc(F)cc2)cc1NS(=O)(=O)c1ccc(C#N)cc1
2. COc1ccc(NC(=O)Nc2ccc(Cl)c(Cl)c2)cc1NC(=S)Nc1cccc(C(=O)O)c1
[Q] From the items above, decide which of 1 and 2 has the lower h15LO, value given as bare % reading. Lab log: write the label of the selected item as the result.
[A] 2

I. COc1ccc(C(=O)Nc2ccccc2)cc1NS(=O)(=O)c1cccc(C#N)c1
II. COc1ccc(NC(=O)Nc2ccc(Cl)c(Cl)c2)cc1N
[Q] Of I and II , which one carries the higher reported h15LO, value given as bare %? To answer, give the label that identifies your chosen option.
[A] I
(I: 93.07%, II: 57.49%)

1. CCOC(=O)c1cccc(NC(=O)c2ccc(OC)c(Nc3cccc(C(F)(F)F)c3)c2)c1
2. CCOC(=O)c1cccc(NC(=O)c2ccc(OC)c(NCc3cccs3)c2)c1
[Q] Param metric = h15LO, value given as bare %; output whichever of 1 , 2 has the minimum value. Your answer should be the label attached to the chosen record.
[A] 2

* * *

TARGET_DESC: rabbit reticulocyte 15-LO (Oryctolagus cuniculus)
Construct: Fifteen-lipoxygenase was obtained from phenylhydrazine-treated rabbits and purified per the method of Rapoport; from tissue; host or cells: reticulocytes of phenylhydrazine-treated rabbits
ASSAY_NOTES: Rabbit Reticulocyte 15-LO Assay (h15LO)
Format: biochemical
CONDITIONS: Table 2; concentration not given
OBSERVED_PROPERTY: h15LO, value given as bare % (%)

Some solved cases for reference:
COMPOUND	h15LO, value given as bare % / %
COc1ccc(C(=O)Nc2ccc(F)c(F)c2)cc1NCc1ccc(C(=O)O)cc1 [Example 234]	71.56
COc1ccc(C(=O)Nc2ccc(F)cc2)cc1NS(=O)(=O)c1ccc([N+](=O)[O-])cc1 [Example 191]	96.99
COc1ccc(C(=O)Nc2ccc(F)c(F)c2)cc1NCc1cccc(C(=O)O)c1 [Example 230]	92.57

P. COc1ccc(NC(=O)c2ccc(F)c(F)c2)cc1NCc1cccc(O)c1 [Example 245]
Q. COc1ccc(C(=O)Nc2ccccc2)cc1NCc1ccc(C(C)C)cc1 [Example 243]
[Q] Among P and Q , which shows a numerically higher h15LO, value given as bare % result? Mark your selection by writing its label.
[A] P

I. COc1ccc(NC(=O)c2ccc(F)c(F)c2)cc1NS(=O)(=O)c1cccc(C#N)c1 [Example 205]
II. O=C(Nc1ccccc1)c1ccc(OC(F)(F)F)c(Nc2cccc(C(F)(F)F)c2)c1 [Example 158]
[Q] Decide: I or II , by lowest recorded h15LO, value given as bare %. Returns: label corresponding to the selected item.
[A] II
(II: 48.28%, I: 86.96%)

* * *

TARGET_DESC: rabbit reticulocyte 15-LO (Oryctolagus cuniculus)
Construct: Fifteen-lipoxygenase was obtained from phenylhydrazine-treated rabbits and purified per the method of Rapoport; from tissue; host or cells: reticulocytes of phenylhydrazine-treated rabbits
ASSAY_NOTES: Rabbit Reticulocyte 15-LO Assay (h15LO)
Assay type: biochemical
CONDITIONS: Table 2; 2U rabbit reticulocyte 15-LO, 174 μM linoleic acid, 15 minutes at 4° C.
Protocol: Rabbit Reticulocyte 15-LO Assay (h15LO) The present 15-LO assay takes advantage of the ability of 15-LO to oxidize the fatty acid linoleic acid to the hydroperoxy fatty acid 13-(S)HPODE, resulting in the formation of a conjugated diene. The 15-LO inhibitors are incubated with 15-LO enzyme in the presence of linoleic acid substrate. […] 13-HPODE is quantitated by comparing peak areas of individual samples with those from a standard curve generated using authentic 13-HODE. […]
OBSERVED_PROPERTY: IC50 (nM)

Consider the worked cases shown below.
COMPOUND	OBSERVED_PROPERTY	READING_UNIT	REPORTED
CCCCS(=O)(=O)Nc1cc(C(=O)Nc2ccccc2)ccc1OC [Example 129]	IC50	nM	79
COc1ccc(C(=O)Nc2ccccc2)cc1NCc1ccc(N(C)C)cc1 [Example 268]	IC50	nM	213
COC(=O)c1cccc(NC(=S)Nc2cc(C(=O)Nc3ccccc3)ccc2OC)c1 [Example 161]	IC50	nM	22
COc1ccc(C(=O)Nc2ccccc2)cc1NCc1ccc(O)cc1 [Example 272]	IC50	nM	304

a. COc1ccc(C(=O)Nc2ccccc2)cc1NS(=O)(=O)Cc1ccccc1 [Example 135]
b. COc1ccc(C(=O)Nc2ccccc2)cc1Nc1cc(Cl)cc(Cl)c1 [Example 35]
c. COc1ccc(NC(=O)Nc2ccc(Cl)c(Cl)c2)cc1NC(=S)Nc1cc(Cl)cc(Cl)c1 [Example 171]
d. COc1ccc(C(=O)Nc2ccc(F)cc2)cc1NCc1cccs1 [Example 260]
e. COc1ccc(C(=O)Nc2cccc(Cl)c2)cc1NC(=S)Nc1ccc(F)cc1 [Example 108]
[Q] Order field: IC50 | Direction: descending (largest first) Please reply with the labels ordered as requested. Many thanks.
[A] c, d, a, e, b
(c: 275 nM, d: 186 nM, a: 63 nM, e: 34 nM, b: 7 nM)

* * *

TARGET_DESC: rabbit reticulocyte 15-LO (Oryctolagus cuniculus)
Construct: Fifteen-lipoxygenase was obtained from phenylhydrazine-treated rabbits and purified per the method of Rapoport; from tissue; host or cells: reticulocytes of phenylhydrazine-treated rabbits
ASSAY_NOTES: Rabbit Reticulocyte 15-LO Assay (h15LO)
Format: biochemical
CONDITIONS: Table 2; 2U rabbit reticulocyte 15-LO, 174 μM linoleic acid, 15 minutes at 4° C.
OBSERVED_PROPERTY: IC50 (nM)

Consider the reported IC50 for these compounds:
COc1ccc(C(=O)Nc2ccc(F)c(F)c2)cc1NC(=S)Nc1cc(Cl)cc(Cl)c1 9
COc1ccc(C(=O)Nc2ccc(Cl)cc2)cc1NC(=S)Nc1cc(Cl)cc(Cl)c1 17
COc1ccc(NC(=O)c2ccc(Cl)c(Cl)c2)cc1NS(=O)(=O)c1ccc(C)cc1 36

A. COc1ccc(C(=O)Nc2ccccc2)cc1NC(=S)Nc1cccc(C(=O)O)c1
B. COc1ccc(C(=O)Nc2ccccc2)cc1NCc1ccc(F)cc1
C. CCOc1ccc(C(=O)Nc2ccccc2)cc1Nc1cccc(C(F)(F)F)c1
[Q] List the 3 entries from lowest IC50 to highest IC50 value. Quick reminder: the answer is the labels in the order asked.
[A] A, C, B

* * *

Known melting point of a selection of compounds

COc1ccc(C(=O)Nc2ccccc2)cc1NC(=S)Nc1ccc([N+](=O)[O-])cc1 183 to 184 °C
COc1ccc(NC(=O)c2ccc(Cl)c(Cl)c2)cc1N 215 to 218 °C
COc1ccc(C(=O)Nc2ccccc2)cc1NS(=O)(=O)c1cccc2cccnc12 187 to 188 °C
CCc1ccc(C(=O)Nc2ccccc2)cc1NC(=S)Nc1cccc(C(F)(F)F)c1 166 to 167 °C
COc1ccc(C(=O)Nc2ccccc2)cc1NC(=S)Nc1ccc(Cl)c(Cl)c1 174 to 175 °C
COc1ccc(C(=O)Nc2ccccc2)cc1Nc1cccc(Cl)c1 168 to 170 °C
COc1ccc(C(=O)Nc2ccc(Cl)c(Cl)c2)cc1N 179 to 182 °C
COc1ccc(C(=O)Nc2ccccc2)cc1NC(=S)Nc1cccc(C(F)(F)F)c1 177 to 178 °C

[Q] # melting point lookup, item `COc1ccc(C(=O)Nc2ccccc2)cc1NC(=S)Nc1cccc(C#N)c1`
[A] 183 to 185 °C
